# Target Or System: MAGI2_2, Q86UL8
# Sequence (Q86UL8 410-522): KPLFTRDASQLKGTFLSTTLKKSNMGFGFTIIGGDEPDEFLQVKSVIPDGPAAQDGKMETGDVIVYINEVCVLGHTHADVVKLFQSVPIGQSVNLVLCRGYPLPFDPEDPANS
# Method Summary: holdup assay
# Design: key: below the threshold = too weak to quantify, mostly under pKd 3.1 to 4
# Measurement Setup: plain residues with an end cap or a label only (N-terminal biotin on a linker: ado-ado)
Each item that follows carries a reported pKd.
Provide a numeric answer; units are not to be included.

So for AKPSRISTVV [IQSEC2, Q5JU85] , the logged pKd turned out to be 5.23

GET /value?item= VNKSKLLTDV [KCNA1, Q09470] &field=pKd returns 4.06

Value of measured pKd for the entry VDSTVKVWTC [TRAF7, Q6Q0C0] : 3.65

Looking up TSSMRGMDAV [RSRC2, Q7L4I2] , I see its pKd listed as 4.02

Next:
The binder listed as SNAGNTATKA [NOSTRIN, Q8IVI9] has a reported pKd of 3.56

Notebook: PRAEAEDSFL [PDGFRB, P09619] , pKd read as 3.55

The recorded pKd for SARSRLSSNL [HCN2, Q9UL51] is 3.71

Per the records, this binder ( EKKTLIGIKL [GOT1L1, Q8NHS2] ) has pKd equal to 3.52

Source: paper PMC9482650
